- tested-on: rat NMUR2 (rat, UniProt Q9ESQ4 1-395)
- Sequence (Q9ESQ4 whole entry): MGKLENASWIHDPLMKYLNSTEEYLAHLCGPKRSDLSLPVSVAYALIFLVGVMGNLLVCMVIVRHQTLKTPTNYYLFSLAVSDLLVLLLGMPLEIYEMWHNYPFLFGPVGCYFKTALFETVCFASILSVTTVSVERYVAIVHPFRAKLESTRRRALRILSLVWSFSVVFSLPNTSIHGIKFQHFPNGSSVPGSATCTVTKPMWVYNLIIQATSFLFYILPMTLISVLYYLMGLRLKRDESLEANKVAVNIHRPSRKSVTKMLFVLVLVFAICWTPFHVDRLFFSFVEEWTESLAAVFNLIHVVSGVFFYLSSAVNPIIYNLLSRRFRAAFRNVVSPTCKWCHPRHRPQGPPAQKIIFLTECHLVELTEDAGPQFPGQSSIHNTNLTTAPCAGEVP
- assay-text: cell-based or functional assay
Starred links: 1 amine or outer side, 2 acyl side, 3 side chain; linkers in the order of their positions; H or OH if unused. Non-standard residues stand in square brackets, D forms with d. *: point of attachment. Ttds = 1-amino-4,7,10-trioxa-13-tridecanamine succinimic acid spacer, O=C(CCC(=O)[*:2])NCCCOCCOCCOCCCN[*:1]; (PEG)2 40 kDa = branched PEG of 40 kDa linked via the Cys side-chain thiol (code C2 = Cys(PEG)2 40 kDa); Cholesteroyl = cholesterol linked to a cysteine residue via the side-chain thiol; Palmitoyl = CCCCCCCCCCCCCCCC(=O)*
quantity-measured: EC50 (FLIPR) (nM)
Answers are plain numbers, in nM.

// below: answered binders
[[record]]
binder = "Ac-C(PEG 20 kDa)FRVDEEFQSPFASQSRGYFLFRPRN-NH2 [NMU21]"
quantity_measured = "EC50 (FLIPR)"
test_result = 7

[[record]]
binder = "Ac-C(PEG 20 kDa)C(PEG 20 kDa)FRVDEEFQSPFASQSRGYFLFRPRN-NH2 [NMU23]"
quantity_measured = "EC50 (FLIPR)"
test_result = 47.4

[[record]]
binder = "Palmitoyl-C((PEG)2 40 kDa)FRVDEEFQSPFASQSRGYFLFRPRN-NH2 [NMU25]"
quantity_measured = "EC50 (FLIPR)"
test_result = 37.8

[[record]]
binder = "Ac-C((PEG)2 40 kDa)[Ttds]FLFRPRN-NH2 [NMU16]"
quantity_measured = "EC50 (FLIPR)"
test_result = 315

[[record]]
binder = "Ac-C((PEG)2 40 kDa)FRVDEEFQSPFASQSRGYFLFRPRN-NH2 [NMU9]"
quantity_measured = "EC50 (FLIPR)"
test_result = 4.5


Turning to the following binder.
I have this binder here, Ac-C(Cholesteroyl)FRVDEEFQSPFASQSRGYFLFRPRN-NH2 [NMU10] , and I need its recorded EC50 (FLIPR).
41.5
